# Test system: M19-MEL
# Assay summary: NCI tumour cell line growth inhibition, 48 h
Activity calls are given as the source filed them. Rule as the data show it: active = GI50 up to about 1.1 µM and inactive = higher.
Quantity measured: GI50

# returns recorded GI50 (system: M19-MEL) for `Cc1c2cc[n+](C)cc2c(C)c2c1oc1ccccc12` 2.64 µM (inactive)

Also `COc1cc2c[n+](C)c3c4cc(OC)c(OC(C)C)cc4ccc3c2cc1OC` , if possible. 18.4 µM (inactive)

Also `C#CCOc1c(C(=O)OCC)c(=O)n(C)c2ccccc12` , if possible. > 100 µM (inactive)

Also c1cc2c(cc1C1OCC3C(c4ccc5c(c4)OCO5)OCC13)OCO2 (stereo unspecified) , if possible. 51.2 µM (inactive)

Also CCN(CC)c1c(C)nnn1C1OC(COC(C)=O)C(OC(C)=O)C(OC(C)=O)C1OC(C)=O (stereo unspecified) , if possible. > 100 µM (inactive)
